Would you kindly list IC50 for each of these compounds?
- Study Target: ER α-glucosidase GANAB (from Pompe disease Fibroblast lysates) (Homo sapiens, UniProt Q14697)
- Construct: Cellular homogenates of Pompe fibroblasts (1 mg mL^−1) were used as protein source for GANAB; endogenous in cells; host or cells: Pompe disease fibroblasts (homogenate)
- Sequence (Q14697 29-944): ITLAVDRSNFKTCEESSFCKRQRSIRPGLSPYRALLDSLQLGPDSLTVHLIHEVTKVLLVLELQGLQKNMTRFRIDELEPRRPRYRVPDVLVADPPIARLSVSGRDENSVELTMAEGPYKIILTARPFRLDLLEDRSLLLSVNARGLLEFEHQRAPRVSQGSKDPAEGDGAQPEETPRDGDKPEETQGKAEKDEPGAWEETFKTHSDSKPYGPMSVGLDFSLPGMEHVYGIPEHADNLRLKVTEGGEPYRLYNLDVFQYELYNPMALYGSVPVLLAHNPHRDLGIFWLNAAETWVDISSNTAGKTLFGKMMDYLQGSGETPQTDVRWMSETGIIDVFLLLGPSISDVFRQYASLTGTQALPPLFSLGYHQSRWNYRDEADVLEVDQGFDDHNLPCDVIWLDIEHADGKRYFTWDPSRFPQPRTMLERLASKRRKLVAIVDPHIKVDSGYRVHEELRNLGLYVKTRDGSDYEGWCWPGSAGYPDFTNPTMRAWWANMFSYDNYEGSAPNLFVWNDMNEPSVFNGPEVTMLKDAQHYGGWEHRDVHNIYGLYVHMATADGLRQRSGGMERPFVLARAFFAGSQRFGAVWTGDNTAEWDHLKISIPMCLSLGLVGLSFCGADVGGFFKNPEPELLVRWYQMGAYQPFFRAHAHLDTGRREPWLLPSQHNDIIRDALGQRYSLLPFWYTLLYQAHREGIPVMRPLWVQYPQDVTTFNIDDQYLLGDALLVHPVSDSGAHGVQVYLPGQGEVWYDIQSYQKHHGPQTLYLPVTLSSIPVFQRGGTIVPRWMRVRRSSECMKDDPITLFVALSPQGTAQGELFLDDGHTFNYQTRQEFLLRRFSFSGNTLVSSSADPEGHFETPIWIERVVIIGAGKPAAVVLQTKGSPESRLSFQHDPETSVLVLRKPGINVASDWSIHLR
- Sequence (P14314 15-528 partner): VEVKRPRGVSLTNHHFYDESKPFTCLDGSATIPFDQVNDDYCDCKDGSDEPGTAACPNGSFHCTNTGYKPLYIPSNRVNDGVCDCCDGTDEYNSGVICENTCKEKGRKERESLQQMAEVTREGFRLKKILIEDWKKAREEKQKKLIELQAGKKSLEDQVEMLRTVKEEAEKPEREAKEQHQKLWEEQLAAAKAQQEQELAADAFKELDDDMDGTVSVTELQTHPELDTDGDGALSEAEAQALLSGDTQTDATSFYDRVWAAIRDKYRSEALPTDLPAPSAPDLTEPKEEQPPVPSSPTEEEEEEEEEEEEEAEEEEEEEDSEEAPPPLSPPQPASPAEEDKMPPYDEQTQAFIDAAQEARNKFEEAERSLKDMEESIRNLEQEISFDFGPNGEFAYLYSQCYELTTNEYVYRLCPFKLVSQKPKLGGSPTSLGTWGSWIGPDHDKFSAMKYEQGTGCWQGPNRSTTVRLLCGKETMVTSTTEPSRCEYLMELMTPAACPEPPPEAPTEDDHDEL
- Method Summary: fluorogenic substrate (4MU-α-D-glucopyranoside) assay on GANAB in Pompe fibroblast homogenates;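 also: inhibitor preincubated 30 min at 37 °C with homogenate, then GANAB activity read after 2 h with 3.0 mM fluorogenic substrate in McIlvaine buffer containing 0.1% BSA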
- Format: biochemical
- Run Parameters: Table S2; 4-MU alpha glucoside substrate; read-out: IC50 on GANAB
One number for each entry, in µM.

These recorded examples may help you get a feel for the data.
Smiles Repr: CC(C)=CCC/C(C)=C/CC/C(C)=C/CN1C[C@H](O)[C@@H](O)[C@H](O)[C@H]1CO
Unit String: µM
Value Observed: 8.8
//
Smiles Repr: OC[C@@H]1[C@@H](O)[C@H](O)[C@@H](O)CN1CCCCCOCc1ccc(-c2ccccc2F)cc1
Unit String: µM
Value Observed: 1.6
//
Smiles Repr: CC(C)(C)COCCCCCN1C[C@H](O)[C@@H](O)[C@H](O)[C@@H]1CO
Unit String: µM
Value Observed: 29

List IC50 for every entry below, keeping the order given.
1. OC[C@@H]1[C@@H](O)[C@H](O)[C@@H](O)CN1CCCCCOCc1ccc(-c2ccccc2)cn1
2. OC[C@@H]1[C@@H](O)[C@H](O)[C@@H](O)CN1CCCCCOCc1ccc(-c2cncnc2)cc1
3. N#Cc1cccc(-c2ccc(COCCCCCN3C[C@H](O)[C@@H](O)[C@H](O)[C@H]3CO)cc2)c1

Resp:
0.31
1.3
1

List IC50 for every entry below, keeping the order given.
1. OC[C@@H]1[C@@H](O)[C@H](O)[C@@H](O)CN1CCCCCOCc1ccc(-c2ccc(Cl)cc2)cc1
2. OC[C@@H]1[C@@H](O)[C@H](O)[C@@H](O)CN1CCCCCOCc1ccc(-c2ccc(F)nc2)cc1

Resp:
1: 0.15; 2: 1.7
